Overview of recorded mitochondrial superoxide for various compounds
Test system: iBMDM (immortalised mouse bone-marrow-derived macrophages), LPS-stimulated
Assay details: mitochondrial superoxide (MitoSOX fluorescence) fold increase over unstimulated control; higher = more LPS-induced mitochondrial ROS (less inhibition)
Run parameters: inhibitor concentration: 500 nM; LPS: 100 ng/ml; time after LPS: 1 h
No unit in the answer, please; the number alone is enough.

Here is how some compounds turned out for mitochondrial superoxide.
Cc1ccc(C(=O)Nc2ccc(CN3CCN(C)CC3)c(C(F)(F)F)c2)cc1C#Cc1cnc2cccnn12	1.08
CC(C)n1nc(-c2ccc3oc(N)nc3c2)c2c(N)ncnc21	1.34
CN1CCN(S(=O)(=O)c2ccc(-c3cnc(N)c(C(=O)Nc4cccnc4)n3)cc2)CC1	1.34

Incoming: Suppose we examine the compound COc1cc(Nc2ncc(F)c(Nc3ccc4c(n3)NC(=O)C(C)(C)O4)n2)cc(OC)c1OC [R406 (free base)] ; what mitochondrial superoxide value has been reported?
Outgoing: 1.23

Incoming: What value of mitochondrial superoxide has been recorded for this entry: COc1cc(OC)c(/C=C/S(=O)(=O)Cc2ccc(OC)c(NCC(=O)O)c2)c(OC)c1
Outgoing: 1.07
